Data credit: patent US20200323888A1

Target: T1, MBP-HishNAA80 fusion protein (MBP-Naa80) (human, UniProt Q93015-2 1-308)
T1 sequence (looked up): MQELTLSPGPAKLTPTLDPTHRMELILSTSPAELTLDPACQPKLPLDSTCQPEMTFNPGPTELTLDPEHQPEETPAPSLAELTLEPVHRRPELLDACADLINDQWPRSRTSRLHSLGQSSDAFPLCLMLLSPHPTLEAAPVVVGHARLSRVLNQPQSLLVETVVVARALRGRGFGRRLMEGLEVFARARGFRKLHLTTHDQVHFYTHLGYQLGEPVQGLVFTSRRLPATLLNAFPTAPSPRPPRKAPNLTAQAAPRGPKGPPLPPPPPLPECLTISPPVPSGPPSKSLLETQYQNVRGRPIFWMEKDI
Experiment: cell-based or functional assay
Observed property: Product formation (µM)
Give the value, in units of µM, as a plain number.

These recorded examples may help you get a feel for the data.
{"Binder": "MLGPEGGRWGRPVGRRRRPVRVYP [MLGP24]", "Assay value": 2.06}
{"Binder": "MAPLDLDRWGRPVGRRRRPVRVYP [MAPL24]", "Assay value": 2.28}
{"Binder": "AVFADLDRWGRPVGRRRRPVRVYP [AVFA24]", "Assay value": -0.96}
{"Binder": "SESSSKSRWGRPVGRRRRPVRVYP [SESS24]", "Assay value": 1.14}
{"Binder": "DDDIAALRWGRPVGRRRRPVRVYP [DDDI24]", "Assay value": 50.5}

Measured Product formation, MELLSPPRWGRPVGRRRRPVRVYP [MELL24] : 2.15

Measured Product formation, MKKSYSGRWGRPVGRRRRPVRVYP [MKKS24] : 3.37

Measured Product formation, MTNKSSLRWGRPVGRRRRPVRVYP [MTNK24] : -4.25

Measured Product formation, EEEIAALRWGRPVGRRRRPVRVYP [EEEI24] : 42.4

Measured Product formation, MDELFPLRWGRPVGRRRRPVRVYP [MDEL24] : 119
